Data provenance: PubChem BioAssay (NCATS)

- target: Rap guanine nucleotide exchange factor 3 (Homo sapiens)
- runDescription: Counterscreen qHTS for agonist of cAMP-regulated guanine nucleotide exchange factor 3 (EPAC1) (AID 1645889); further: % of control where 0% means no effect; nearly all actives have a fitted effect of over 40% in size
- testContext: EPAC1 Rap1B-BODIPY-GDP exchange, fluorescence; series mostly up to 154 µM
Results filed as inconclusive are left out. Activity calls are given as the source filed them. The call rests on the fitted dose curve; in most records, active means well fitted activation curve with a large enough effect; inconclusive means small, poorly fitted or top-dose-only effect, or another doubt; inactive means no such curve, though single readings can be large or run the other way.
quantityName: activation

The following compounds have reported results that may help.
-- ask Lab request: please report activation under test system Rap guanine nucleotide exchange factor 3 (Homo sapiens) for CCOC(=O)C1=C(N)Oc2cc(O)ccc2C1c1ccccc1 (stereo unspecified)
-- reply 10.8% [at 30.8 µM] (inactive)

-- ask Lab request: please report activation under test system Rap guanine nucleotide exchange factor 3 (Homo sapiens) for O=C(/C=C/c1ccco1)N1CCCC(c2ccccc2)C1 (stereo unspecified)
-- reply inactive

-- ask Lab request: please report activation under test system Rap guanine nucleotide exchange factor 3 (Homo sapiens) for O=C(C1=C(O)C(=O)N(c2nc3ccc(Cl)cc3s2)C1c1ccco1)c1ccco1 (stereo unspecified)
-- reply inactive

-- ask Lab request: please report activation under test system Rap guanine nucleotide exchange factor 3 (Homo sapiens) for CCOC(=O)C(C)n1nc(-c2ccccc2)c2ccccc2c1=O (stereo unspecified)
-- reply inactive

-- ask Lab request: please report activation under test system Rap guanine nucleotide exchange factor 3 (Homo sapiens) for O=C(O)C(Cc1ccccc1)N1C(=O)/C(=C/c2cccs2)SC1=S (stereo unspecified)
-- reply inactive

Next:
-- ask Lab request: please report activation under test system Rap guanine nucleotide exchange factor 3 (Homo sapiens) for COc1ccc(N2C(=O)CSC2c2ccccc2F)c(OC)c1 (stereo unspecified)
-- reply inactive

----------
- target: Rap guanine nucleotide exchange factor 3 (Homo sapiens) (UniProt O95398)
- Sequence (O95398 whole entry, looked up): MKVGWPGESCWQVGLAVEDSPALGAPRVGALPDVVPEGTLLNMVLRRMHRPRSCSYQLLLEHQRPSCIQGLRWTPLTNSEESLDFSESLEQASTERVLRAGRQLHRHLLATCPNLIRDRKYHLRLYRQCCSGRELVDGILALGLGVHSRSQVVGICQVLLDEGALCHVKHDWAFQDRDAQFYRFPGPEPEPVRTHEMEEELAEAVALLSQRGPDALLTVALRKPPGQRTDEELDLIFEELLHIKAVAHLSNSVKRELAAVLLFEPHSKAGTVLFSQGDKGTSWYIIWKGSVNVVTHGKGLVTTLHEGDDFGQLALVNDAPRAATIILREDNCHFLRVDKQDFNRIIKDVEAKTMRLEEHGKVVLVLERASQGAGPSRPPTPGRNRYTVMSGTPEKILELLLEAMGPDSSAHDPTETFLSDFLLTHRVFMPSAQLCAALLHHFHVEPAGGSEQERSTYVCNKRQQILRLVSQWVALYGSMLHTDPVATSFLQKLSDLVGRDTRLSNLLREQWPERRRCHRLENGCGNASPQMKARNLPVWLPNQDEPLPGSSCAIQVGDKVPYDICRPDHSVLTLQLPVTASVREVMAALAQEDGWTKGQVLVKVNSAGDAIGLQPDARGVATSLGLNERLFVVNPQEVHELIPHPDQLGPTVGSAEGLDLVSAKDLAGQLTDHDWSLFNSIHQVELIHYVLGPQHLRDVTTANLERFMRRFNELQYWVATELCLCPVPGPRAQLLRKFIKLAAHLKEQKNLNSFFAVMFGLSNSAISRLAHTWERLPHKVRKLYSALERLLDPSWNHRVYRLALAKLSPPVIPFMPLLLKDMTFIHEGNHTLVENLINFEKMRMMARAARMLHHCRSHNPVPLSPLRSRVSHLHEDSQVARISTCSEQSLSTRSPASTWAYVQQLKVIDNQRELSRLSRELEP
- runDescription: Counterscreen qHTS for antagonist of cAMP-regulated guanine nucleotide exchange factor 3 (EPAC1) (AID 1645888);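 further: fluorescence loss as bound BODIPY-GDP is released from Rap1B; % of control where 0% means no effect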
- testContext: Rap1B-BODIPY-GDP nucleotide exchange, fluorescence; series mostly up to 154 µM
Records with an inconclusive call do not appear. The source made the active and inactive calls. The call rests on the fitted dose curve; in most records, active means well fitted inhibition curve with a large enough effect; inconclusive means small, poorly fitted or top-dose-only effect; inactive means no such curve, though single readings can be large or run the other way.
quantityName: activity change, negative = inhibition

The following compounds have reported results that may help.
-- ask What does the data say about its activity change, negative = inhibition? Entry: COc1ccc(C(C#N)=Cc2ccccc2OC)cc1
-- reply -8.61% [at 30.8 µM] (inactive)

-- ask What does the data say about its activity change, negative = inhibition? Entry: CCc1noc(C)c1C(=O)N1CCCSC1=Nc1ccccc1Cl
-- reply -10.8% [at 30.8 µM] (inactive)

-- ask What does the data say about its activity change, negative = inhibition? Entry: Cc1cc(Br)ccc1-n1[nH]c(C)c(C=Nc2cccc3nsnc23)c1=O
-- reply inactive

-- ask What does the data say about its activity change, negative = inhibition? Entry: Cc1cc(C)c2sc(N(CCCN(C)C)C(=O)c3ccc(S(=O)(=O)N(C)C4CCCCC4)cc3)nc2c1
-- reply inactive

-- ask What does the data say about its activity change, negative = inhibition? Entry: COCCn1c(-c2ccc(Br)cc2)csc1=Nc1cccnc1
-- reply inactive

Next:
-- ask What does the data say about its activity change, negative = inhibition? Entry: CCOC(=O)c1ccc(NC(=S)NNC(=O)C2(C)CC2(Cl)Cl)cc1 (configuration not stated)
-- reply inactive

-- ask What does the data say about its activity change, negative = inhibition? Entry: C=CCOC(=O)C1=C(C)NC(C)=C(C(=O)OCC=C)C1c1ccco1
-- reply -5.56% [at 30.8 µM] (inactive)

----------
- runDescription: NFAT Signaling Pathway (AID 444);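 further: carbachol stimulus at about its EC50 of 1 µM final; on the % scale 0 is the no-effect control and ±100 the full control effect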
- testContext: Jurkat NFAT-bla M1, carbachol, beta-lactamase ratio, 5 h; at 7.69 µM (top of the series) unless noted
Records with an inconclusive call do not appear.
quantityName: activity change, negative = inhibition (%)
Numeric answer only, unit % assumed.

-- ask What does the data say about its activity change, negative = inhibition? Entry: O=c1c(CCc2ccccc2)nc2cnc(Oc3ccccc3)nc2n1C1CC1
-- reply -5.31

-- ask What does the data say about its activity change, negative = inhibition? Entry: N#CCCn1c(=O)c(-c2cccc(C#N)c2)nc2cnc(Oc3cccc(Cl)c3)nc21
-- reply -6.45

-- ask What does the data say about its activity change, negative = inhibition? Entry: O=c1c(-c2ccccc2)nc2cnc(Oc3ccccc3)nc2n1C[C@H]1CCCO1
-- reply 4.49

-- ask What does the data say about its activity change, negative = inhibition? Entry: COc1ccccc1CNc1nc(-c2ccoc2)nc2ccccc12
-- reply -19.8

-- ask What does the data say about its activity change, negative = inhibition? Entry: Clc1ccccc1-c1ccc2ncnc(NCCN3CCOCC3)c2c1
-- reply 13.8

-- ask What does the data say about its activity change, negative = inhibition? Entry: CCNc1ncc2nc(CCc3ccccc3)c(=O)n(CCC#N)c2n1
-- reply -10.7

-- ask What does the data say about its activity change, negative = inhibition? Entry: COc1cccc(Cn2c(=O)cnc3cnc(Nc4cccc(OC)c4)nc32)c1
-- reply 15.4

-- ask What does the data say about its activity change, negative = inhibition? Entry: CNc1ncncc1-c1ccccc1CN(C)C
-- reply -28.4

-- ask What does the data say about its activity change, negative = inhibition? Entry: COc1ccc(CNc2ncncc2-c2ccccc2OC)c(OC)c1
-- reply -12.1

-- ask What does the data say about its activity change, negative = inhibition? Entry: CN1CCN(c2nc(-c3cccnc3)nc3ccccc23)CC1
-- reply 11.1

-- ask What does the data say about its activity change, negative = inhibition? Entry: COc1ccccc1-c1ccc2ncnc(N3CCNCC3)c2c1
-- reply 5.04

----------
- runDescription: Cell Viability - LYMP2-013 (AID 970);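 further: cells exposed to compound for 24 h at 37 °C; nearly all actives have a fitted effect of over 55% in size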
- testContext: LYMP2-013 lymphoblastoid cells viability; series mostly up to 92.2 µM
Records with an inconclusive call do not appear. The source made the active and inactive calls. The call rests on the fitted dose curve; in most records, active means well fitted cell-killing curve with a large enough effect; inconclusive means small, poorly fitted or top-dose-only effect; inactive means flat fitted curve, though single readings scatter.
Return exactly one item of 1 (active), -1 (inactive)

-- ask Record request — test call for C=Cc1ccccc1Cl
-- reply -1

-- ask Record request — test call for CC1=CC(C)(C)Nc2ccccc21
-- reply -1

-- ask Record request — test call for NC1=NC(S)C2N=CN=C2N1 (stereo not drawn)
-- reply 1

-- ask Record request — test call for O=NO
-- reply -1

-- ask Record request — test call for O=S(=O)(O)c1ccccc1
-- reply -1

-- ask Record request — test call for C=CCc1ccc(OC)c(OC)c1
-- reply -1

-- ask Record request — test call for ClCCCl
-- reply -1

-- ask Record request — test call for CCCCCCCCCCCC(=O)O
-- reply -1

-- ask Record request — test call for O=C(O)CC(C(=O)O)C(CC(=O)O)C(=O)O (stereo not drawn)
-- reply -1

-- ask Record request — test call for O=C(O)c1ccccc1C(c1ccc(O)cc1)c1ccc(O)cc1
-- reply -1

-- ask Record request — test call for Cc1ccccc1C
-- reply -1

-- ask Record request — test call for c1ccccc1
-- reply -1

-- ask Record request — test call for C/C=C\c1ccc(OC)cc1
-- reply -1

----------
- runDescription: qHTS for differential inhibitors of proliferation of Plasmodium falciparum line 3D7 (AID 1876)
- testContext: P. falciparum 3D7 proliferation inhibition; series mostly up to 28.7 µM
Results filed as inconclusive are left out. The source made the active and inactive calls. Calls follow the shape of the dose curve; as a rule, active = well fitted curve in the direction sought with a large enough effect; inconclusive = small, poorly fitted or top-dose-only effect, or another doubt; inactive = no such curve, though single readings can be large or run the other way.
Return exactly one item of active, inactive

-- ask Record request — test call for O=S(=O)(O)C1CCNCC1
-- reply inactive

-- ask Record request — test call for CC[C@H](C)C(=O)O[C@H]1CCC=C2C=C[C@H](C)[C@H](CC[C@@H]3C[C@H](O)CC(=O)O3)C21 (stereo partly specified)
-- reply inactive

-- ask Record request — test call for C[C@H]1c2cccc(O)c2C(O)=C2C(=O)[C@]3(O)C(O)=C(C(N)=O)C(=O)C(N(C)C)[C@@H]3[C@@H](O)C21 (stereo partly specified)
-- reply active

-- ask Record request — test call for Nc1nc(Cl)nc2c1ncn2[C@@H]1O[C@H](CO)[C@H](O)[C@H]1O
-- reply active

-- ask Record request — test call for COc1cc2c(cc1O)CCC1C2CC[C@]2(C)[C@@H](O)CC[C@@H]12 (stereo partly specified)
-- reply inactive

-- ask Record request — test call for N#CC(Cc1ccc(O)c(O)c1)C(=O)N1CCc2ccccc21 (stereo unspecified)
-- reply active

----------
- runDescription: Cell Viability - SK-N-SH (AID 435);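 further: compound exposure lasted 40 h at 37 °C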
- testContext: SK-N-SH neuroblastoma cell viability qHTS
Inconclusive results are not listed. Activity calls are given as the source filed them. Calls follow the shape of the full dose curve.
Return exactly one item of 1.0 = active, 0.0 = inactive

-- ask Record request — test call for O=C(/C=C/c1ccc(O)c(O)c1)O[C@@H](C(=O)O)[C@@H](OC(=O)/C=C/c1ccc(O)c(O)c1)C(=O)O
-- reply 0.0

-- ask Record request — test call for O=C1c2ccccc2C(=O)C1c1ccc2ccccc2n1
-- reply 1.0

-- ask Record request — test call for CC1=C2[C@H](/C=C(\C)C(=O)O)CC[C@@H](C)[C@H]2CC1
-- reply 0.0

-- ask Record request — test call for COc1ccc2nc(N)sc2c1
-- reply 0.0

-- ask Record request — test call for C1OCOCO1
-- reply 0.0

-- ask Record request — test call for Cc1ccc(N)c([N+](=O)[O-])c1
-- reply 0.0

-- ask Record request — test call for Clc1cc(Cl)c(Cl)c(Cl)c1Cl
-- reply 0.0

-- ask Record request — test call for C=CC(=C)CCC=C(C)C
-- reply 0.0

-- ask Record request — test call for CCO[Si](CCCN)(OCC)OCC
-- reply 0.0

-- ask Record request — test call for CCCCCCCCCCCC(=O)O
-- reply 0.0
